- System: NCI-H226 lung
- measurementProtocol: NCI-60 one-dose screen, 48 h
- measurementConditions: 10 µM unless noted
About 83,000 compounds went through this panel and 20% of them were active in at least one assay; those are over-represented in the sample as a whole. Calls of active or inactive are those of the source. The calls were made as follows: active = growth percent below 10; inactive = the rest.
Outcome codes: active, inactive

- compound: "Nc1nc2ccccc2c2c(=O)c3cc(Cl)ccc3sc12"
  className: "inactive"
- compound: "[N-]=[N+]=NCC1OC(n2cnc3c(NC(=O)Nc4ccccc4)ncnc32)C2OC(=O)CC12 (stereo not given)"
  className: "inactive"
- compound: "COc1ccc(C(=O)/C=C/c2ccccc2)cc1S(N)(=O)=O"
  className: "inactive"
- compound: "CC(=O)c1ccc(-n2cc(CN3CCN(c4cc5c(cc4F)c(=O)c(C(=O)O)cn5C4CC4)CC3)nn2)cc1"
  className: "inactive"
- compound: "O=C(C1=Cc2cc3ccccc3n2Cc2cnnn21)c1ccc(F)cc1"
  className: "inactive"
- compound: "CCN(CC)CCOc1ccc(/C(=C(\\C)Cc2ccc(OC)cc2)c2ccc(OC(=O)NCc3ccccc3)cc2)cc1"
  className: "inactive"
- compound: "C=C1C(=O)O[C@H]2[C@H]1CC/C(CNC(=O)Cc1c[nH]c3ccccc13)=C\\CC[C@@]1(C)O[C@@H]21"
  className: "active"
- compound: "O=C(NCCCCCCNC(=O)OCc1ccc2c(Cl)cc(Cl)c(O)c2n1)OCc1ccc2c(Cl)cc(Cl)c(O)c2n1"
  className: "active"
- compound: "N#Cc1c(-c2cccc(Cl)c2)cc(-c2cccnc2)[nH]c1=O"
  className: "inactive"
- compound: "O=C(c1c[nH]c2ccccc12)c1n[nH]c(=S)n1-c1ccc([N+](=O)[O-])cc1"
  className: "inactive"

* * *

- System: NCI-H460 lung
- measurementProtocol: NCI-60 one-dose screen, 48 h (100 = growth as untreated, 0 = no growth, -100 = all killed)
- measurementConditions: 10 µM unless noted
The panel holds about 83,000 compounds, 20% with a hit somewhere; the sample as a whole holds those more often.
Reported growth by item:
measure: growth (%)

- compound: "Nc1c(Br)cc2c(c1Br)Cc1cc([N+](=O)[O-])ccc1-2"
  unitOfMeasure: "%"
  dataValue: 83.2
- compound: "COc1ccc(N=C2NN=C(c3c[nH]c4ccccc34)CS2)cc1OC"
  unitOfMeasure: "%"
  dataValue: 26.9
- compound: "CC1(/C=C/c2ccc(-c3ccccc3)cc2)CCn2cnc3ncnc(c32)N1O (stereo unspecified)"
  unitOfMeasure: "%"
  dataValue: 3.93
- compound: "C=C1C(=O)O[C@H]2[C@H]1CC/C(COC(=O)NCc1ccc(Cn3c(=O)sn(-c4ccc(I)cc4)c3=O)cc1)=C\\CC[C@@]1(C)O[C@@H]21"
  unitOfMeasure: "%"
  dataValue: 91.9
- compound: "CN(C)c1ccc(C(=S)c2ccc(N(C)C)cc2)cc1"
  unitOfMeasure: "%"
  dataValue: 92.6
- compound: "Nc1ncccc1O"
  unitOfMeasure: "%"
  dataValue: 49.3
- compound: "CCNC(=O)N1CCc2c(Br)c3c(c(OC)c2C1Cc1ccc(OC)cc1)OCO3 (stereo unspecified)"
  unitOfMeasure: "%"
  dataValue: 15.2
- compound: "CCCCCCCCCCCCCCCCCCOc1ccccc1CC(=O)NCC[N+](C)(C)C"
  unitOfMeasure: "%"
  dataValue: 22.5
- compound: "NS(=O)(=O)c1ccc(C(=O)N=Nc2c(O)[nH]c3ccc(Cl)cc23)cc1"
  unitOfMeasure: "%"
  dataValue: 106
- compound: "COc1ccc(-c2cc(C(=O)N3N=C(c4ccc(N)cc4)CC3c3ccc(Cl)cc3)c3ccccc3n2)cc1 (stereo unspecified)"
  unitOfMeasure: "%"
  dataValue: 12.8
- compound: "CC1SC(c2ccccc2O)N(NC(=O)CCC(=O)c2nc3ncccc3[nH]2)C1=O (stereo unspecified)"
  unitOfMeasure: "%"
  dataValue: 103
